assayRemarks: PK of compound of Formula (Ia) after single subcutaneous dose of solution formulations in Wistar Han rats
Type: in vivo
experimentalContext: male, Wistar Han, rat, plasma, sc, 50 mg/kg, 2016 h; individual rats; SC 50 mg/kg; solution R, 400 mg/mL
parameterMeasured: concentration at 2016 h (nM)
Enter your answer as a number in nM; do not include the unit.

In: Need concentration at 2016 h of CC(C)(C#Cc1ccc(-c2ccc(Cl)c3c(NS(C)(=O)=O)nn(CC(F)(F)F)c23)c([C@H](Cc2cc(F)cc(F)c2)NC(=O)Cn2nc(C(F)(F)F)c3c2C(F)(F)[C@@H]2C[C@H]32)n1)S(C)(=O)=O [compound of Formula (Ia)] , thanks.
Out: 199

====

assayRemarks: PK of compound of Formula (Ia) after single subcutaneous dose of solution formulations in Wistar Han rats
Assay type: in vivo
experimentalContext: male, Wistar Han, rat, plasma, sc, 50 mg/kg, male Wistar Han rats, single SC 50 mg/kg, 400 mg/mL solution Y (water, PEG 300), mean ± SD, n = 4; read-out: AUC0-1344 h
parameterMeasured: AUC(0-t) (µM·h)
Your answer should be a plain number; it is taken to be in µM·h.

In: Give the measured AUC(0-t) of CC(C)(C#Cc1ccc(-c2ccc(Cl)c3c(NS(C)(=O)=O)nn(CC(F)(F)F)c23)c([C@H](Cc2cc(F)cc(F)c2)NC(=O)Cn2nc(C(F)(F)F)c3c2C(F)(F)[C@@H]2C[C@H]32)n1)S(C)(=O)=O .
Out: 182

====

assayRemarks: PK of compound of Formula (Ia) after single subcutaneous dose of solution formulations in Wistar Han rats
Assay type: in vivo
experimentalContext: male, Wistar Han, rat, plasma, sc, 50 mg/kg, 3.00 h; mean, n = 5 rats; SC 50 mg/kg; solution U, 500 mg/mL
parameterMeasured: concentration at 3 h (nM)
The answer is to be given in nM; state only the numeric part.

In: Which concentration at 3 h is listed for CC(C)(C#Cc1ccc(-c2ccc(Cl)c3c(NS(C)(=O)=O)nn(CC(F)(F)F)c23)c([C@H](Cc2cc(F)cc(F)c2)NC(=O)Cn2nc(C(F)(F)F)c3c2C(F)(F)[C@@H]2C[C@H]32)n1)S(C)(=O)=O [compound of Formula (Ia)] ?
Out: 110

====

assayRemarks: PK of compound of Formula (Ia) after single subcutaneous dose of solution formulations in beagle dogs
Type: in vivo
experimentalContext: male, beagle, dog, plasma, sc, 12 mg/kg, male beagle dogs, single SC 12 mg/kg, 400 mg/mL solution AA (6.25% poloxamer 188), mean ± SD, n = 3; read-out: AUC0-24 h
parameterMeasured: AUC(0-t)

In: What does the data say about its AUC(0-t)? Entry: CC(C)(C#Cc1ccc(-c2ccc(Cl)c3c(NS(C)(=O)=O)nn(CC(F)(F)F)c23)c([C@H](Cc2cc(F)cc(F)c2)NC(=O)Cn2nc(C(F)(F)F)c3c2C(F)(F)[C@@H]2C[C@H]32)n1)S(C)(=O)=O
Out: 1.57 µM·h

====

assayRemarks: PK of compound of Formula (Ia) after single subcutaneous dose of solution formulations in beagle dogs
Format: in vivo
experimentalContext: male, beagle, dog, plasma, sc, 6 mg/kg, 3024 h; mean, n = 3 dogs; SC 6 mg/kg; solution V, 300 mg/mL
Description: Formulations containing the compound of Formula (Ia), or a pharmaceutically acceptable salt thereof, were prepared as solutions and optionally administered subcutaneously or intramuscularly to rats, rabbits, and/or dogs. A solution of about 400 mg/mL of the compound of Formula (Ia) having 17.00 w/w % water, 36.40 w/w % PEG 300, 35.20 w/w % of a sodium salt of a compound of Formula (Ia), 5.00 w/w % ethanol, and 6.40 w/w % poloxamer 188 was prepared. […]
parameterMeasured: concentration at 3024 h (nM)
Respond numerically; units are nM and should not be typed.

In: // returns reported concentration at 3024 h for input CC(C)(C#Cc1ccc(-c2ccc(Cl)c3c(NS(C)(=O)=O)nn(CC(F)(F)F)c23)c([C@H](Cc2cc(F)cc(F)c2)NC(=O)Cn2nc(C(F)(F)F)c3c2C(F)(F)[C@@H]2C[C@H]32)n1)S(C)(=O)=O [compound of Formula (Ia)]
Out: 2.3
